Values from patent US6175013A

- EXPERIMENTAL TARGET: NK-1 receptor (Homo sapiens, UniProt P25103)
- Construct: an aliquot of IM9 cells; endogenous in cells
- Sequence (P25103 whole entry): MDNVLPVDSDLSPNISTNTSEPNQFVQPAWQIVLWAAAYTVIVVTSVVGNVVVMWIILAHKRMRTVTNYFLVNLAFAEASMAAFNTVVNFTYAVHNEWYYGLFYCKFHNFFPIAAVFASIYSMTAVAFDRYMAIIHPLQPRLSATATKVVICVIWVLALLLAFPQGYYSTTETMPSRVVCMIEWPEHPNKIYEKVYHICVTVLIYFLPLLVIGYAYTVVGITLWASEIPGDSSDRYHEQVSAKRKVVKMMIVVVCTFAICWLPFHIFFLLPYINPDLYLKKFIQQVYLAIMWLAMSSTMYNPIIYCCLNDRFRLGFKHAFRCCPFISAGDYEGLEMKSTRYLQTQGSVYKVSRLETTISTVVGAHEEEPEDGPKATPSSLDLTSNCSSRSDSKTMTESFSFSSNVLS
- PROCEDURE SUMMARY: NK-1 Receptor Binding Assay (125I-substance P, IM9 cells)
- PARTICULARS: 20 pM 125I-labeled substance P, 45 minutes at 4° C., may be average of more than one experiment, read-out: IC50, inhibition of binding of substance P
Would you mind telling me the reported pIC50 of each entry?
A value of pIC50 is the negative decimal logarithm of a concentration given in moles per litre.

Entry COc1ccccc1CN1CC(Cc2c[nH]c3ccccc23)N=C1CN1CCN(c2ccccc2)CC1 (stereo not shown) ; pIC50 = 6.92

Entry COc1ccccc1CN1CC(c2ccccc2)N=C1C (stereo not shown) ; pIC50 = 6.74

Entry COc1ccccc1CN1CC(C)(Cc2c[nH]c3ccccc23)N=C1C (stereo not shown) ; pIC50 = 6.25

Entry COc1ccccc1CN1CC(Cc2ccccc2)N=C1C (stereo not shown) ; pIC50 = 6.85
